Source listed as PubChem BioAssay (NCI).

Test system: MDA-MB-435
Test: NCI tumour cell line growth inhibition, 48 h
Readout kind: TGI (µM)
Give the quantity in µM, number only.

Report TGI for CC1OC(O[C@@H]2C=C3CC[C@@H]4[C@H](CC[C@]5(C)[C@@H](c6ccc(=O)oc6)CC[C@]45O)[C@@]3(C)CC2)C(O)C(OC2OC(CO)C(O)C(O)C2O)C1O (stereo not given in full)
0.02

Report TGI for CC1=C(C(=O)Nc2ccc(Cl)c(Cl)c2)C(c2cccc(Cl)c2)NC(=S)N1 (stereo not given)
45.1

Report TGI for CC12O[C@H](C[C@@H](OC(=O)CCC(=O)O)[C@H]1O)n1c3ccccc3c3c4c(c5c6ccccc6n2c5c31)C(=O)NC4=O
7.08

Report TGI for NC(=S)N1N=C2c3ccccc3CCC[C@H]2[C@@H]1c1ccccc1
0.326

Report TGI for C=C(C)C(=O)Nc1ccc(-c2c(-c3ccc(Oc4nccc(C)n4)c(F)c3)c3c(N)ncnc3n2C)cc1
21.3

Report TGI for N#CC1=C(N)OC2=C(CCOc3c2ccc2ccccc32)C1c1ccc(Br)cc1 (stereo not given)
61.2

Report TGI for C[C@]12CCC(=O)C[C@@H]1CC[C@@H]1[C@@H]2CC[C@]2(C)[C@@H](OC(=O)N(CCCl)N=O)CC[C@@H]12
18.1

Report TGI for CC1=C[C@@H]2c3c(c(O)c(O)c4oc5cc(O)cc(O)c5c(=O)c34)[C@@H](c3cc(O)c(O)c4oc5cc(O)cc(O)c5c(=O)c34)[C@@H]2C(C)(C)C1
13.7

Report TGI for O=C1Nc2ccc(Br)cc2/C1=N/N1C(=O)C(=O)N(C2CCCCC2)C1=S
8.16

Report TGI for CSc1nc(NCc2ccccc2)c2cnn(COCCO)c2n1
80.5

Report TGI for O=C(NCCNCCO)c1ccc(Nc2nc3ccccc3c3occc23)cc1
22

Report TGI for COc1ccc(C2=NNC(=O)c3ccccc3N2c2nc(-c3cccs3)nc3cc(OC)c(OC)cc23)cc1
13.6

Report TGI for COC(=O)c1c(O)ccc2c1c1c(n2Cc2cccc(C)c2)C(=O)c2ccccc2C1
42.7
